Hi there, I'd appreciate the recorded pIC50 for every entry that follows.
- experimental-system: PDGFRB (Homo sapiens)
- Construct: Kinases are expressed as either kinase domains or full length constructs; made in house
- Sequence (P09619 33-1106, species assumed): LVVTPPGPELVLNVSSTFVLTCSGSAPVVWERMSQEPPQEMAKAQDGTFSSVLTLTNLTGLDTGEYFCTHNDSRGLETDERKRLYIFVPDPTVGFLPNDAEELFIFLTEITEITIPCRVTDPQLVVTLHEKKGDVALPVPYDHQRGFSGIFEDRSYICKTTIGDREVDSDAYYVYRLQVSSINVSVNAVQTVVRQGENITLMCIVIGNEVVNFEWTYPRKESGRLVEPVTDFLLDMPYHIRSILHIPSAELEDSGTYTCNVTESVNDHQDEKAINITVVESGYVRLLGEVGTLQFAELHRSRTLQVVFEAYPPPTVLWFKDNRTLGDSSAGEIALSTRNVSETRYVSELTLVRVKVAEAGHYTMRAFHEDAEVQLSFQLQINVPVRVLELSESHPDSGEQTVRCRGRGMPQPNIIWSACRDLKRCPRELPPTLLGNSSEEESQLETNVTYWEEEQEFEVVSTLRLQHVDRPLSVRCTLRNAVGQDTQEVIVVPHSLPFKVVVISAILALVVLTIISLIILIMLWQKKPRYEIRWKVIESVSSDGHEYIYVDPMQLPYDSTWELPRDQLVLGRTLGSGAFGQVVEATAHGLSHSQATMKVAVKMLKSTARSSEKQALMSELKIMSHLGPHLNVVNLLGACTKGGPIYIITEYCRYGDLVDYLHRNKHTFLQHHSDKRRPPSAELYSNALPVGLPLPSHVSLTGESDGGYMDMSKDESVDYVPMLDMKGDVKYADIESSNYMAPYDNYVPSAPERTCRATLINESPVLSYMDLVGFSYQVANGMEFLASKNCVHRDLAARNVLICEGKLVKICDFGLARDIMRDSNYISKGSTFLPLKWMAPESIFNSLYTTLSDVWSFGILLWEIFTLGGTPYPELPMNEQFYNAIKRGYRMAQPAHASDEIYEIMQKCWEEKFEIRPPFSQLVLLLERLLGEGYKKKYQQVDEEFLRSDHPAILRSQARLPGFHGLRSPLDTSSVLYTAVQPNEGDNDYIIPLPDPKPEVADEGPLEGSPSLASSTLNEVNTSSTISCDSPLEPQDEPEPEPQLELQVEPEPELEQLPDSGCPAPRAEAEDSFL
- method-notes: Kinase inhibition assay (33P transfer), PDGFRB
- Format: biochemical
- stated-conditions: read-out: PDGFRB-1
pIC50: −log10 of the molar value.

Incoming: Endpoint output: pIC50 of `COc1cc(Nc2ncnc(-n3ccc4cc(Cl)ccc43)n2)cc(OC)c1OC` . Value?
Outgoing: > 6.01

Incoming: Endpoint output: pIC50 of `COc1ccc(CNc2nc3ccccc3n2-c2ncnc(Nc3cc(OC)c(OC)c(OC)c3)n2)cc1` . Value?
Outgoing: < 5.06

Incoming: Endpoint output: pIC50 of `CNc1nc2ccccc2n1-c1ncnc(Nc2cc(OC)c(OC)c(OC)c2)n1` . Value?
Outgoing: > 6.01

Incoming: Endpoint output: pIC50 of `COc1cc(Nc2ncnc(-c3c(O)[nH]c4ccc(Cl)cc34)n2)cc(OC)c1OC` . Value?
Outgoing: 5.25 to 6.03

Incoming: Endpoint output: pIC50 of `COc1cc(Nc2ncnc(Nc3cccc4cccnc34)n2)cc(OC)c1OC` . Value?
Outgoing: > 6.00

Incoming: Endpoint output: pIC50 of `COc1cc(Nc2ncnc(-n3c(Nc4cc(C)n[nH]4)nc4ccccc43)n2)cc(OC)c1OC` . Value?
Outgoing: > 6.07

Incoming: Endpoint output: pIC50 of `COc1ccc(Nc2ncnc(Nc3cc(OC)c(OC)c(OC)c3)n2)cc1` . Value?
Outgoing: > 5.98

Incoming: Endpoint output: pIC50 of `COc1cc(Nc2ncnc(N[C@H](CO)c3ccccc3)n2)cc(OC)c1OC` . Value?
Outgoing: 5.22 to 6.00
